ASSAYED SYSTEM: Metabotropic glutamate receptor 8 (Homo sapiens, UniProt O00222)
Sequence (O00222 whole entry): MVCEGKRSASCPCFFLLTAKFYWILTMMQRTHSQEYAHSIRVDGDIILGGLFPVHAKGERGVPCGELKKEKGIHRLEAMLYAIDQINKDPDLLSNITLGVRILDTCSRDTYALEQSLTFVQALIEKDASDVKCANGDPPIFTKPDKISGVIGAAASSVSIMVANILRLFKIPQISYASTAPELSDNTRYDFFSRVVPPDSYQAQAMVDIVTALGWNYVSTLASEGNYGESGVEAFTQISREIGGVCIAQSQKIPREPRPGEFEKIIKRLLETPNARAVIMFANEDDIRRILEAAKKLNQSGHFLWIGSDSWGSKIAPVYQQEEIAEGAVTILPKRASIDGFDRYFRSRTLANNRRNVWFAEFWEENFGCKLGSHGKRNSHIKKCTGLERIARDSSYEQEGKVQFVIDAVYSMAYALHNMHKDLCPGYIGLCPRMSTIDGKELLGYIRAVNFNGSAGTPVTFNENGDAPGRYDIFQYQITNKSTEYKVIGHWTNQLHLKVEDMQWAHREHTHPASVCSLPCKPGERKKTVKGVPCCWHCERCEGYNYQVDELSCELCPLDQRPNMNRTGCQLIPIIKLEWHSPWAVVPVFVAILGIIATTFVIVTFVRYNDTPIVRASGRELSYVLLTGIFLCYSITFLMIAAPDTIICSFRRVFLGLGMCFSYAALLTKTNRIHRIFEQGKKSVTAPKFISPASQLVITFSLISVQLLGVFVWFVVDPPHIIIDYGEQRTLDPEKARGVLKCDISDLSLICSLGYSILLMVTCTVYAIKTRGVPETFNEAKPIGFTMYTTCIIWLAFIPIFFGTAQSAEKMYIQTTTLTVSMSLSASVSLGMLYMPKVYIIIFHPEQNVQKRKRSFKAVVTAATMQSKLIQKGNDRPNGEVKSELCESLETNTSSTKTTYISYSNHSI
ASSAY: Agonist activity at human recombinant mGlu8 receptor expressed in AV12 cells assessed as inhibition of forskolin-stimulated cAMP production after 1 hr by fluorescence assay
Format: functional, cell-based
OBSERVABLE: pEC50
Give only the number. pEC50 is defined as minus log10 of concentration in molar units.

query: Indicate its recorded pEC50; the compound in question is "N[C@@]1(C(=O)O)C[C@@H](Sc2nc[nH]n2)[C@H]2[C@H](C(=O)O)[C@H]21"
result: 5.00

---

ASSAY: Cmax in Sprague-Dawley rat at 10 mg/kg, ip
Assay type: ADME, organism-based
Set-up: dose 10 mg/kg, route intraperitoneal
CONDITION NOTES: in vivo
OBSERVABLE: Cmax
Express your answer as a number followed by its unit.

query: Indicate its recorded Cmax; the compound in question is "N[C@@]1(C(=O)O)C[C@@H](Sc2nc[nH]n2)[C@H]2[C@H](C(=O)O)[C@H]21"
result: 31.1 µM

Every entry's value here was drawn from ChEMBL document CHEMBL3616378.
